Origin of measurements: BigSolDB 2.1

conditions: in ethanol, 323.15 K
measured-parameter: solubility (mole fraction)

{"structure-smiles": "CC(=O)[C@H]1CC[C@H]2[C@@H]3CCC4=CC(=O)CC[C@]4(C)[C@H]3CC[C@]12C", "result-value": 0.0411}

---

details: in THF, 303.15 K

{"structure-smiles": "CC(=O)[C@H]1CC[C@H]2[C@@H]3CCC4=CC(=O)CC[C@]4(C)[C@H]3CC[C@]12C", "solubility (mole fraction)": 0.125}

---

conditions: in acetone, 288.15 K
measured-parameter: solubility (mole fraction)

{"structure-smiles": "CC(=O)[C@H]1CC[C@H]2[C@@H]3CCC4=CC(=O)CC[C@]4(C)[C@H]3CC[C@]12C", "result-value": 0.0244}

---

conditions: in ethyl acetate, 323.15 K

{"structure-smiles": "CC(=O)[C@H]1CC[C@H]2[C@@H]3CCC4=CC(=O)CC[C@]4(C)[C@H]3CC[C@]12C", "solubility (mole fraction)": 0.0802}

---

details: in THF, 293.15 K
measured-parameter: solubility (mole fraction)

{"structure-smiles": "CC(=O)[C@H]1CC[C@H]2[C@@H]3CCC4=CC(=O)CC[C@]4(C)[C@H]3CC[C@]12C", "measured-parameter": "solubility (mole fraction)", "result-value": 0.0943}

---

details: in isopropanol, 323.15 K
measured-parameter: solubility (mole fraction)

{"structure-smiles": "CC(=O)[C@H]1CC[C@H]2[C@@H]3CCC4=CC(=O)CC[C@]4(C)[C@H]3CC[C@]12C", "result-value": 0.0455}

---

conditions: in n-propanol, 313.15 K

{"structure-smiles": "CC(=O)[C@H]1CC[C@H]2[C@@H]3CCC4=CC(=O)CC[C@]4(C)[C@H]3CC[C@]12C", "solubility (mole fraction)": 0.0378}

---

details: in toluene, 308.15 K
measured-parameter: solubility (mole fraction)

{"structure-smiles": "CC(=O)[C@H]1CC[C@H]2[C@@H]3CCC4=CC(=O)CC[C@]4(C)[C@H]3CC[C@]12C", "result-value": 0.162}

---

details: in n-heptane, 283.15 K

{"structure-smiles": "CC(=O)[C@H]1CC[C@H]2[C@@H]3CCC4=CC(=O)CC[C@]4(C)[C@H]3CC[C@]12C", "solubility (mole fraction)": 0.00018}

---

details: in THF, 283.15 K

{"structure-smiles": "CC(=O)[C@H]1CC[C@H]2[C@@H]3CCC4=CC(=O)CC[C@]4(C)[C@H]3CC[C@]12C", "solubility (mole fraction)": 0.0701}

---

settings: in 1,4-dioxane, 293.15 K

{"structure-smiles": "CC(=O)[C@H]1CC[C@H]2[C@@H]3CCC4=CC(=O)CC[C@]4(C)[C@H]3CC[C@]12C", "solubility (mole fraction)": 0.073}

---

conditions: in toluene, 303.15 K
measured-parameter: solubility (mole fraction)

{"structure-smiles": "CC(=O)[C@H]1CC[C@H]2[C@@H]3CCC4=CC(=O)CC[C@]4(C)[C@H]3CC[C@]12C", "measured-parameter": "solubility (mole fraction)", "result-value": 0.146}

---

conditions: in ethyl acetate, 303.15 K
measured-parameter: solubility (mole fraction)

{"structure-smiles": "CC(=O)[C@H]1CC[C@H]2[C@@H]3CCC4=CC(=O)CC[C@]4(C)[C@H]3CC[C@]12C", "result-value": 0.039}
